# measurement_notes: Hemolytic activity in human RBC assessed as haemoglobin release measured after 3 hr
# Type: toxicity, cell-based, Erythrocyte
# conditions: red blood cells (erythrocytes)
value_kind: HC50 at 3 h (µg/mL)
Field: numeric (µg/mL). Do not append units.

compound: CCCCCOP(=O)(CCN(CCCN)CCCN)OCCCCCCCCCCOP(=O)(CCN(CCCN)CCCN)OCCCCC.Cl.Cl.Cl.Cl.Cl.Cl (centres undefined)
value_kind: HC50 at 3 h
value_reported: 159

compound: CCCCCCCCCCOP(=O)(CCN(CCCN)CCCN)OCCCOP(=O)(CCN(CCCN)CCCN)OCCCCCCCCCC.Cl.Cl.Cl.Cl.Cl.Cl (centres undefined)
value_kind: HC50 at 3 h
value_reported: 31.6

compound: CCCCCCOP(=O)(CCN(CCCN)CCCN)OCCCCCCOP(=O)(CCN(CCCN)CCCN)OCCCCCC.Cl.Cl.Cl.Cl.Cl.Cl (centres undefined)
value_kind: HC50 at 3 h
value_reported: 634

Please fill in: HC50 at 3 h reported for Cl.Cl.Cl.Cl.Cl.Cl.NCCCN(CCCN)CCP(=O)(OCCCCCOP(=O)(CCN(CCCN)CCCN)OCC12CC3CC(CC(C3)C1)C2)OCC12CC3CC(CC(C3)C1)C2 (centres undefined) = 415

Please fill in: HC50 at 3 h reported for CCCCCCCCCCCCOP(=O)(CCN(CCCN)CCCN)OCCc1c[nH]c2ccccc12.Cl.Cl.Cl.Cl (centres undefined) = 12.1

Please fill in: HC50 at 3 h reported for CCCCCCCCCOP(=O)(CCN(CCCN)CCCN)OCCOCc1ccccc1.Cl.Cl.Cl (centres undefined) = 79.8

----------
# measurement_notes: Hemolytic activity in human RBC assessed as haemoglobin release measured after 3 hr
# Assay type: toxicity, cell-based, Erythrocyte
# conditions: red blood cells (erythrocytes)
HC50 at 3 h strictly less than 200 µg/mL = criterion met. Otherwise criterion not met.

The following compounds have reported results that may help.
compound: CCCC/C=C\CCOP(=O)(CCN(CCN)CCN)OCCCCCCOP(=O)(CCN(CCN)CCN)OCC/C=C\CCCC.Cl.Cl.Cl.Cl.Cl.Cl (configuration not stated)
category_label: criterion not met
//
compound: CCCCC/C=C\CCOP(=O)(CCN(CCCN)CCCN)OCCCCCOP(=O)(CCN(CCCN)CCCN)OCC/C=C\CCCCC.Cl.Cl.Cl.Cl.Cl.Cl (configuration not stated)
category_label: criterion not met
//
compound: Cl.Cl.Cl.Cl.Cl.Cl.NCCCN(CCCN)CCP(=O)(OCCCCCCOP(=O)(CCN(CCCN)CCCN)OCCCC1CCCCC1)OCCCC1CCCCC1 (configuration not stated)
category_label: criterion met
//
compound: CC(C)COP(=O)(CCN(CCCN)CCCN)OCCCCCCCCCCOP(=O)(CCN(CCCN)CCCN)OCC(C)C.Cl.Cl.Cl.Cl.Cl.Cl (configuration not stated)
category_label: criterion not met
//
compound: CCCC/C=C\CCOP(=O)(CCN(CCCN)CCCN)OCCCCCCOP(=O)(CCN(CCCN)CCCN)OCC/C=C\CCCC.Cl.Cl.Cl.Cl.Cl.Cl (configuration not stated)
category_label: criterion met
//
compound: CCCCCCCCOP(=O)(CCN(CCCN)CCCN)OCCCCCCCCCCOP(=O)(CCN(CCCN)CCCN)OCCCCCCCC.Cl.Cl.Cl.Cl.Cl.Cl (configuration not stated)
category_label: criterion met

Dear colleague, could you confirm whether HC50 at 3 h of CCCCC/C=C\CCCOP(=O)(CCN(CCCN)CCCN)OCCCOP(=O)(CCN(CCCN)CCCN)OCCC/C=C\CCCCC.Cl.Cl.Cl.Cl.Cl.Cl (configuration not stated) falls below 200 µg/mL? Thanks.
criterion not met

----------
# Tested on: Staphylococcus aureus
# measurement_notes: Antibacterial activity against Staphylococcus aureus ATCC 29213 = CCM 4223 assessed as inhibition of bacterial growth incubated for 24 hrs in presence of BSA by microdilution assay
# Assay type: functional
value_kind: MIC
Remember to quote the unit after the number.

molecule: CCCCCCCCOP(=O)(CCN(CCN)CCN)OCCCCCCCCOP(=O)(CCN(CCN)CCN)OCCCCCCCC.Cl.Cl.Cl.Cl.Cl.Cl (stereo not drawn)
target_or_system: Staphylococcus aureus
value_kind: MIC
value_reported: 0.2 µg/mL

molecule: CCCC/C=C\CCOP(=O)(CCN(CCCNC(=N)N)CCCNC(=N)N)OCCCCCCOP(=O)(CCN(CCCNC(=N)N)CCCNC(=N)N)OCC/C=C\CCCC.Cl.Cl.Cl.Cl.Cl.Cl (stereo not drawn)
target_or_system: Staphylococcus aureus
value_kind: MIC
value_reported: 0.2 µg/mL

From here, focus on the item given below.
Please fill in: MIC reported for CCCCCOP(=O)(CCN(CCCN)CCCN)OCCCCCCCCCCCCOP(=O)(CCN(CCCN)CCCN)OCCCCC.Cl.Cl.Cl.Cl.Cl.Cl (stereo not drawn) = 8 µg/mL

----------
Listed compounds paired with reported log10 MIC
# System: Staphylococcus aureus
# measurement_notes: Antibacterial activity against methicillin resistant Staphylococcus aureus 4591/A assessed as reduction in microbial growth incubated for 24 hrs by microdilution assay
# Assay type: functional
Values below are the log10 of the recorded MIC, with µg/mL as the unit.

# example entries with known answers
compound: CCCCCCCCOP(=O)(CCN(CCCN)CCCN)OCCCCCCCCCCCCOP(=O)(CCN(CCCN)CCCN)OCCCCCCCC.Cl.Cl.Cl.Cl.Cl.Cl (configuration not stated)
value_reported: 0.00

compound: CC(C)COP(=O)(CCN(CCCN)CCCN)OCCCCCCCCCCCCCCOP(=O)(CCN(CCCN)CCCN)OCC(C)C.Cl.Cl.Cl.Cl.Cl.Cl (configuration not stated)
value_reported: 0.60

compound: CCCCCCCCOP(=O)(CCN(CCCN)CCCN)OCCCCCCCCCCOP(=O)(CCN(CCCN)CCCN)OCCCCCCCC.Cl.Cl.Cl.Cl.Cl.Cl (configuration not stated)
value_reported: 0.48

compound: CCCCOP(=O)(CCN(CCCN)CCCN)OCCCCCCCCCCCCOP(=O)(CCN(CCCN)CCCN)OCCCC.Cl.Cl.Cl.Cl.Cl.Cl (configuration not stated)
value_reported: 0.60

compound: CCCCC/C=C\CCCOP(=O)(CCN(CCCN)CCCN)OCCCOP(=O)(CCN(CCCN)CCCN)OCCC/C=C\CCCCC.Cl.Cl.Cl.Cl.Cl.Cl (configuration not stated)
value_reported: 0.00

compound: CCCC/C=C\CCOP(=O)(CCN(CCCN)CCCN)OCCCOP(=O)(CCN(CCCN)CCCN)OCC/C=C\CCCC.Cl.Cl.Cl.Cl.Cl.Cl (configuration not stated)
value_reported: 1.20

compound: Cl.Cl.Cl.Cl.Cl.Cl.NCCCN(CCCN)CCP(=O)(OCCCCCCCCCCCCOP(=O)(CCN(CCCN)CCCN)OCCc1ccccc1)OCCc1ccccc1 (configuration not stated)
value_reported: 0.60

compound: CCC/C=C\CCOP(=O)(CCN(CCN)CCN)OCCCCCCCOP(=O)(CCN(CCN)CCN)OCC/C=C\CCC.Cl.Cl.Cl.Cl.Cl.Cl (configuration not stated)
value_reported: 0.00

From here, focus on the item given below.
Please fill in: log10 MIC reported for CCCCCCCCOP(=O)(CCN(CCCN)CCCN)OCCCCOP(=O)(CCN(CCCN)CCCN)OCCCCCCCC.Cl.Cl.Cl.Cl.Cl.Cl (configuration not stated) = 0.30

----------
# Test system: Staphylococcus epidermidis
# measurement_notes: Antibacterial activity against Staphylococcus epidermidis CCM 7221 assessed as inhibition of bacterial growth incubated for 24 hrs by microdilution assay
# Type: functional
Listed compounds paired with reported MIC
Field: numeric (µg/mL). Do not append units.

compound: CCCCCCCCOP(=O)(CCN(CCCN)CCCN)OCCCCCCCCOP(=O)(CCN(CCCN)CCCN)OCCCCCCCC.Cl.Cl.Cl.Cl.Cl.Cl (configuration not stated)
MIC (µg/mL): 3
//
compound: CCCCCCCCOP(=O)(CCN(CCN)CCN)OCCCCCCOP(=O)(CCN(CCN)CCN)OCCCCCCCC.Cl.Cl.Cl.Cl.Cl.Cl (configuration not stated)
MIC (µg/mL): 0.5
//
compound: CCCCCCOP(=O)(CCN(CCCN)CCCN)OCCCCCCCCCCCCCCOP(=O)(CCN(CCCN)CCCN)OCCCCCC.Cl.Cl.Cl.Cl.Cl.Cl (configuration not stated)
MIC (µg/mL): 0.5

Please fill in: MIC reported for Cl.Cl.Cl.Cl.Cl.Cl.NCCCN(CCCN)CCP(=O)(OCCCOP(=O)(CCN(CCCN)CCCN)OCCC12CC3CC(CC(C3)C1)C2)OCCC12CC3CC(CC(C3)C1)C2 (configuration not stated) = 2

Please fill in: MIC reported for CCCC/C=C\CCOP(=O)(CCN(CCCN)CCCN)OCCCCCCOP(=O)(CCN(CCCN)CCCN)OCC/C=C\CCCC.Cl.Cl.Cl.Cl.Cl.Cl (configuration not stated) = 0.5

Please fill in: MIC reported for CCCCCCOP(=O)(CCN(CCCN)CCCN)OCCCCCCCCCCCCOP(=O)(CCN(CCCN)CCCN)OCCCCCC.Cl.Cl.Cl.Cl.Cl.Cl (configuration not stated) = 0.125

Please fill in: MIC reported for CC/C=C\CCCOP(=O)(CCN(CCCN)CCCN)OCCCOP(=O)(CCN(CCCN)CCCN)OCCC/C=C\CC.Cl.Cl.Cl.Cl.Cl.Cl (configuration not stated) = 32
